B1: ALKBH7 (parent)
chain: SVICRSLPEGMGPGESGQPPPAC

# Variants of: B1
# procedure.summary: protein stability index of a GFP-peptide fusion (GPS, HEK-293T) (PSI 1-6); higher = more stable;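 note: lentivirally expressed fusions sorted by FACS into six bins by GFP to DsRed ratio, PSI derived from sequencing read proportions per bin multiplied by bin number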
# particulars: c terminus: native
reported.property: protein stability index

Reference set, count: 5
mutation.descriptor	protein stability index
R5L	1.66
P13M	1.55
C23K	4.35
E9G	2.54
A22M	4.74

Specify reported protein stability index for the variant shown: E15R 1.6

Supply reported protein stability index belonging to this variant: P19M 1.64

Identify protein stability index associated with the variant G17H 1.4

State its protein stability index: R5P 2.59

// provenance: the supplement of paper PMC10567573
